Give kon for every item shown.
measured_on: T1, Human SIRPα v2 (human)
T1 construct: also called human SIRPα v2 (antigen of the Biacore assay)
experiment: SPR (Biacore), 1:1 binding model

Before answering, review these 3 worked examples.
[
  {
    "binder": "Humanized anti-SIRPα antibody hu025.059 (antibody, V domains shown, Humanized from C25) VH: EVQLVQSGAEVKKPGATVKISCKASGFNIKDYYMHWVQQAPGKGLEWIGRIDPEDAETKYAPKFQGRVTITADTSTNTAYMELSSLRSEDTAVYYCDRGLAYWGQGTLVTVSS VL: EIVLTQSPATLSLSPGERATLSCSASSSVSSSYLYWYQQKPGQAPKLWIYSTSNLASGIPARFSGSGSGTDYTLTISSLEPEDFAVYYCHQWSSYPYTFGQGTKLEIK",
    "test_value": "1.42e+06 M⁻¹ s⁻¹"
  },
  {
    "binder": "Anti-SIRPα antibody C25 (antibody, V domains shown, Mouse variable regions; also called 025c; 025) VH: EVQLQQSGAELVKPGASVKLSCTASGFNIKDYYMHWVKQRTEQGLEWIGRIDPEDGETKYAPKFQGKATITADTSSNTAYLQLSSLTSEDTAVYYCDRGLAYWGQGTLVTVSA VL: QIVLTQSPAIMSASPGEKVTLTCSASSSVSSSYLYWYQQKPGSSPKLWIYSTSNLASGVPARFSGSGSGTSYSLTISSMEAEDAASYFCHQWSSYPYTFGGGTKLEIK",
    "test_value": "1.51e+06 M⁻¹ s⁻¹"
  },
  {
    "binder": "Humanized anti-SIRPα antibody hu025.021 (antibody, V domains shown, Humanized from C25) VH: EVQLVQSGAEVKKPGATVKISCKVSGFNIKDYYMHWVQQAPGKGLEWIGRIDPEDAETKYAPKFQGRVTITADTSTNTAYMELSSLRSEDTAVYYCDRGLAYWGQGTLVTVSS VL: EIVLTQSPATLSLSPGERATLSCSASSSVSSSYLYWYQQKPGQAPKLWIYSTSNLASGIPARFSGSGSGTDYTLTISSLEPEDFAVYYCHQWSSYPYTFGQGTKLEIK",
    "test_value": "1.65e+06 M⁻¹ s⁻¹"
  }
]

Which measured kon value corresponds to Humanized anti-SIRPα antibody hu025.060 (antibody, V domains shown, Humanized from C25) VH: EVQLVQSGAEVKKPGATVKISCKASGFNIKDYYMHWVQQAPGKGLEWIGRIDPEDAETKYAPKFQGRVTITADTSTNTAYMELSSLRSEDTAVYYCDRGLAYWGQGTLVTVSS VL: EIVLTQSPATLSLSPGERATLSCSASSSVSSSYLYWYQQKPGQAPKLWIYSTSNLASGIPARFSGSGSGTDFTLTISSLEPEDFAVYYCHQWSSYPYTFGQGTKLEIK ? 1.47e+06 M⁻¹ s⁻¹
